# targetSystem: T1, O8-bN
# T1 chain: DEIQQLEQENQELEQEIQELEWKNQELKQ
# testSummary: two-hybrid library CCNG1;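 also: natural log of median RNA to DNA barcode read ratio; higher means stronger binding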
Let's look at some binders and their measured interaction score.

Consider the reported interaction score for these binders:
- binder: "DKNQQLKQENQELEQEIQELEWEIQELEQ [O1-bN]"
  interaction score: -0.836
- binder: "DKIAQLEQKNAELKQENAELEWKIAQLKQ [4H2518-bA]"
  interaction score: -2.05
- binder: "DEIQQLEQKIQELKQKNQELKWKNQELKQ [O12-bN]"
  interaction score: 0.0745
- binder: "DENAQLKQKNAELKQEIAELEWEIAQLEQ [4H1985-bA]"
  interaction score: -2.01
- binder: "DENQQLEQKNQELKQKIQELKWKIQELKQ [O2-bN]"
  interaction score: 0.817

Give the reported interaction score for this binder. DEIQQLEQKIQELKQENQELEWENQELEQ [O3-bN]
-0.285

Give the reported interaction score for this binder. DKIQQLKQEIQELEQENQELEWENQELEQ [O11-bN]
-1.26

Give the reported interaction score for this binder. DENQELEKENEELKREIWELEKKIQELKR [4H1222-bH]
-2.96
